# Test system: HCC-2998 colon
# Assay Remarks: NCI tumour cell line growth inhibition, 48 h
Entries annotated with measured TGI

Molecule: COC(=O)N/N=c1\cc(C(=O)Nc2ccc(C)c(C)c2)oc2cc(O)ccc12
TGI: > 100 µM

Molecule: C=CCN1C(=O)NC(=O)/C(=C/c2c3ccccc3cc3ccccc23)C1=O
TGI: 28.4 µM

Molecule: CCN(CC)c1ccc(Cl)c2c1C(O)(C(C)C)C2(C)C (stereo not given)
TGI: 30.3 µM

Molecule: COc1ccc(OC/C(N)=N/NC(=O)c2ccncc2)cc1
TGI: > 100 µM

Molecule: N#CCc1nc(-c2cc3ccccc3oc2=O)cs1
TGI: > 100 µM

Molecule: Cc1nc2ccc(S(=O)(=O)O)cc2c(=O)n1-c1ccc(C(=O)NN2C(=O)C(Cl)C2c2cccs2)cc1 (stereo not given)
TGI: > 100 µM

Molecule: CC(C)(C)C1CC[C@H]2c3c([nH]c4ccccc34)[C@H]3C(=O)N(c4ccc(F)cc4)C(=O)[C@H]3[C@H]2C1 (stereo not given in full)
TGI: 28.4 µM

Molecule: COc1cc2c3c(n(CCCN)c(=O)c2cc1OC)-c1ccc(N)cc1C3=O
TGI: 6 µM

Molecule: CNS(=O)(=O)Nc1nccc(Cc2c(C)c3ccc(Oc4ncccn4)cc3oc2=O)c1F
TGI: > 10 µM

Molecule: CC(C)(CCCCC(C)(C)NC1=NCCO1)NC1=NCCO1
TGI: > 10 µM

Molecule: C/C(=C\c1ccccc1)C(O)C(=O)c1nc2ccc(Cl)cc2[nH]c1=O (stereo not given)
TGI: > 100 µM

Molecule: CC1OC(OC2C(OC(=O)[C@]34CCC(C)(C)C[C@H]3C3=CC[C@@H]5[C@@]6(C)CC[C@H](OC7OC(CO)C(O)C(O)C7OC7OC(CO)C(O)C(O)C7O)C(C)(C)[C@@H]6CC[C@@]5(C)[C@]3(C)CC4)OCC(O)C2O)C(O)C(O)C1OC1OCC(O)C(O)C1O (stereo not given in full)
TGI: 4.79 µM

Molecule: N#Cc1c(CC(=O)O)cc(=O)n2c1[nH]c1ccccc12
TGI: > 100 µM

Molecule: CCC12C=C(C(=O)OC)N3c4ccccc4C4CCN(CCC1)C2C43 (stereo not given)
TGI: > 100 µM

Molecule: CN(C)[C@@H]1C(=O)C(C(=O)NCc2nc3[nH]cnc(=S)c3[nH]2)=C(O)[C@@]2(O)C(=O)C3=C(O)c4c(O)cccc4[C@@](C)(O)[C@H]3C[C@@H]12
TGI: > 100 µM

Molecule: N#CC1(CCCCl)CCCCC1
TGI: > 100 µM

Molecule: Cc1nc2ccccc2n1Cc1nnc(-c2ccccc2)o1
TGI: > 100 µM

Molecule: N#CC1=C(S)N(C2OC(CO)C(O)C(O)C2O)C(c2ccccc2)=CC1c1ccco1 (stereo not given)
TGI: > 100 µM

Molecule: CCOC(OCC)(OCC)C(Br)CC (stereo not given)
TGI: > 100 µM

Molecule: CC1(C)CC(=O)C(C(=O)Nc2cccs2)=C(O)C1
TGI: > 100 µM

* * *

# Tested on: RXF 393 renal
# Assay Remarks: NCI tumour cell line growth inhibition, 48 h
# key: entry, value: TGI

Molecule: CC1C(OS(=O)(=O)c2ccc3[nH]c(=S)sc3c2)CC2C3(C)CCC2(C(C)C(=O)O)C(O)C13 (centres undefined)
TGI: 61.2 µM
--
Molecule: Cc1nc2ccccc2n1Cc1nnc(-c2ccccc2)o1
TGI: > 100 µM
--
Molecule: O=C(CCN1CCOCC1)Nc1ccc(Cn2nnc3c2C(=O)c2nnn(Cc4ccc(NC(=O)CCN5CCOCC5)cc4)c2C3=O)cc1
TGI: > 100 µM
--
Molecule: COc1cc(S(=O)(=O)Nc2nc(-c3ccc(N=Cc4ccccc4O)cc3)cs2)ccc1Cl
TGI: > 100 µM
--
Molecule: O=S(=O)(O)C(c1ccccc1)C(O)c1ccccc1 (centres undefined)
TGI: > 100 µM
--
Molecule: CC(C)c1ccc2c(c1)CCC1C2CCCC1(C)NCc1ccccc1 (centres undefined)
TGI: 4.66 µM
--
Molecule: CCOc1ccc(NC(=O)C(=O)C(/C(=N/N)C(=O)OC)c2nc3ccc([N+](=O)[O-])cc3[nH]c2=O)cc1 (centres undefined)
TGI: > 100 µM
--
Molecule: COc1ccc(C(C)Nc2cc(OC)c(OC)c(OC)c2)cc1 (centres undefined)
TGI: 20.9 µM
--
Molecule: N#CC1=C(S)N(C2OC(CO)C(O)C(O)C2O)C(c2ccccc2)=CC1c1ccco1 (centres undefined)
TGI: > 100 µM

* * *

The molecules listed here are annotated with their TGI.
# Tested on: SK-MEL-28 melanoma
# Assay Remarks: NCI tumour cell line growth inhibition, 48 h
Endpoint: TGI

Molecule: O=C(CC1(O)C(=O)Nc2c(Cl)cc(Cl)cc21)c1cccc([N+](=O)[O-])c1 (stereo unspecified)
Target Under Test: SK-MEL-28 melanoma
Observed Value: > 80.6 µM
--
Molecule: O=S1(=O)C(=C(c2ccccc2)c2ccccc2)S(=O)(=O)c2ccccc21
Target Under Test: SK-MEL-28 melanoma
Observed Value: > 100 µM
--
Molecule: CN(/N=C/c1ccccn1)C1=NCCN1
Target Under Test: SK-MEL-28 melanoma
Observed Value: > 100 µM
--
Molecule: O=C(O)c1cn(C2CC2)c2cc(N3CCN(C(=O)N(c4ccccc4)c4nc(-c5ccccc5)cs4)CC3)c(F)cc2c1=O
Target Under Test: SK-MEL-28 melanoma
Observed Value: > 100 µM
--
Molecule: CC[C@@H]1CC[C@@H]2[C@H](CC[C@]3(C)[C@@H](O[N+](=O)[O-])CC[C@@H]23)[C@H]1C(C)=O
Target Under Test: SK-MEL-28 melanoma
Observed Value: > 100 µM
--
Molecule: COc1cc(Nc2nc3cc(C)ccc3nc2-c2ccccc2)cc(OC)c1OC
Target Under Test: SK-MEL-28 melanoma
Observed Value: 55.1 µM
--
Molecule: O=S(=O)(O)C(c1ccccc1)C(O)c1ccccc1 (stereo unspecified)
Target Under Test: SK-MEL-28 melanoma
Observed Value: > 100 µM
--
Molecule: Cc1nc2ccccc2n1Cc1nnc(-c2ccccc2)o1
Target Under Test: SK-MEL-28 melanoma
Observed Value: > 100 µM
--
Molecule: C/C=C1/C=CC2c3[nH]c4ccccc4c3CCN2C1 (stereo unspecified)
Target Under Test: SK-MEL-28 melanoma
Observed Value: > 400 µM
--
Molecule: Cc1cnc2[nH]c(-c3cccc4ccccc34)cc(=O)c2c1
Target Under Test: SK-MEL-28 melanoma
Observed Value: > 100 µM
--
Molecule: C=C(C)c1nc(Oc2ccccc2)nc(Oc2ccccc2)n1
Target Under Test: SK-MEL-28 melanoma
Observed Value: 15.3 µM
--
Molecule: S=c1[nH]nc(Cn2c3ccc(Br)cc3c3nc4ccccc4nc32)o1
Target Under Test: SK-MEL-28 melanoma
Observed Value: > 79.2 µM
--
Molecule: CN(C)CCNC(=O)c1cccc2c1nc(-c1cccnc1)c1ccccc12
Target Under Test: SK-MEL-28 melanoma
Observed Value: 23.6 µM
--
Molecule: COc1cc(/C=C/c2cc(/C=C/c3ccc(O)c(OC)c3)n(C(=O)Nc3ccc(C)cc3)n2)ccc1O
Target Under Test: SK-MEL-28 melanoma
Observed Value: 6.87 µM
--
Molecule: NC(Cc1cc(I)c(Oc2ccc(O)c(I)c2)c(I)c1)C(=O)O (stereo unspecified)
Target Under Test: SK-MEL-28 melanoma
Observed Value: > 100 µM
--
Molecule: O/N=C1/C(=C/c2ccc(OCc3ccccc3)cc2)CCCC1C(NO)c1ccc(OCc2ccccc2)cc1 (stereo unspecified)
Target Under Test: SK-MEL-28 melanoma
Observed Value: > 100 µM
--
Molecule: CN(CC(=O)Nc1ccccc1C(=O)O)c1ccccc1
Target Under Test: SK-MEL-28 melanoma
Observed Value: > 100 µM
--
Molecule: c1cc(OCCCCCOc2cccc(-c3nc4ccccc4[nH]3)c2)cc(-c2nc3ccccc3[nH]2)c1
Target Under Test: SK-MEL-28 melanoma
Observed Value: > 100 µM
--
Molecule: CCCCCCCCCCCCOC1C(C(COC2OC(C(O)CO)C3OC(C)(C)OC23)OC(=O)Nc2ccccc2)OC2OC(C)(C)OC21 (stereo unspecified)
Target Under Test: SK-MEL-28 melanoma
Observed Value: 19.3 µM
--
Molecule: CCOC(OCC)(OCC)C(Br)CC (stereo unspecified)
Target Under Test: SK-MEL-28 melanoma
Observed Value: > 100 µM
--
Molecule: CC(C)=CCC[C@@H](C)C1=C(N)C(O)=C(C)C(=O)C1=O
Target Under Test: SK-MEL-28 melanoma
Observed Value: > 75 µM

* * *

Reported TGI by item:
# Test system: M19-MEL melanoma
# Assay Remarks: NCI tumour cell line growth inhibition, 48 h

Molecule: CN(C)CCNC(=O)c1cccc2c1nc(-c1cccnc1)c1ccccc12
TGI: 18.5 µM

Molecule: COc1cc(Nc2nc3cc(C)ccc3nc2-c2ccccc2)cc(OC)c1OC
TGI: 71 µM

Molecule: N#Cc1c(CC(=O)O)cc(=O)n2c1[nH]c1ccccc12
TGI: > 100 µM

Molecule: COc1nc(N)nc2nc[nH]c12
TGI: > 800 µM

Molecule: C/C(=C\c1ccccc1)C(O)C(=O)c1nc2ccc(Cl)cc2[nH]c1=O (centres undefined)
TGI: > 100 µM

Molecule: COc1ccc(C(C)Nc2cc(OC)c(OC)c(OC)c2)cc1 (centres undefined)
TGI: > 100 µM

Molecule: CC(C)(C)c1ccc(OCCOCCOc2ccc(C(C)(C)C)cc2S(N)(=O)=O)c(S(N)(=O)=O)c1
TGI: > 100 µM

Molecule: CN(C)c1ccc(/C=c2/sc3nc(=O)c(-c4ccccc4NC(=O)C(F)(F)F)nn3c2=O)cc1
TGI: > 100 µM

Molecule: Cc1ccccc1NC(=O)C1C(=O)N(c2ccccc2C)C(=O)/C1=N\NC(N)=O (centres undefined)
TGI: > 100 µM
